Answer each item with its documented apparent KD of MS2 coat protein.
- Test system: MS2 coat protein
- Assay: apparent KD of MS2 coat protein; designed switch direction (-1 OFF switch, 1 ON switch): 1; higher = weaker reporter binding
- Condition Summary: input ligand: microRNA oligo, concentration not stated
Kindly answer with a numeric value in µM, unit omitted.

I'd like to know its apparent KD of MS2 coat protein. The sequence in question is GGUCGGUCCUACAUGAGGAUCACCCAUGUUCCGGAAACGGCAUAGGAUAUCUGUCCGAAAAGGUCAGAGAAGGGUGAACCGACC [Fiskers NG3ss - 73] (Eterna round: R96, puzzle: Same State NG 3)
0.118

I'd like to know its apparent KD of MS2 coat protein. The sequence in question is UGGCUGGUGCUAGGAUAUACAUGAGGAAUCCUCGUAGAAGGAGCACGACAUGAGGAUCACCCAUGUAGCCGUCCGUAGACGGCU [salish99_SSNG1_r04_007] (Eterna round: R96, puzzle: Same State NG 1)
0.156

I'd like to know its apparent KD of MS2 coat protein. The sequence in question is AAUUAAUUAAUUAAGUACAUGAGGAUCACCCAUGUAAGUGAUCAGGAUAUCAGCUCGUUUAGAGCUGAGAAGGGAUCCAUGUAC [SSNG3/15-A3] (Eterna round: R96, puzzle: Same State NG 3)
0.297

I'd like to know its apparent KD of MS2 coat protein. The sequence in question is CUGAGAAGUCAAGGAUAUCACGUCGAUUAGACGUGAGAAGGUGAUCAGUACAUGAGGAUCACCCAUGUGUUACAUGGAACUCAG [Brourd's SSNG1/1-A2 mod 8] (Eterna round: R96, puzzle: Same State NG 1)
0.367

I'd like to know its apparent KD of MS2 coat protein. The sequence in question is GAGAGAGGGUGAGGAUAUUCGGUGAUAAUGAUGGGAGAAGGCACAGACAUGAGGAUCACCCAUGUGGGAAUAAUCCAGAGAGAG [Parity 12 - Jieux - Same State NG 1] (Eterna round: R96, puzzle: Same State NG 1)
0.083

I'd like to know its apparent KD of MS2 coat protein. The sequence in question is UAAAGAUCGCGAGGAUAUCGCGAGGAUCACCCGUGAGAAGGCGCAGAGCCGAGGAUCACCCGGCUGAUCCUGAGGAGGAGGUCA (Eterna round: R96, puzzle: Same State NG 1)
0.213

I'd like to know its apparent KD of MS2 coat protein. The sequence in question is GGUGUACAUGAGGAUCACCCAUGUCGACCGCUCACAGGAUAUUUAAUACAAACUGGUAGCGGAGAAGGGUGAGGAA [Oresbeve] (Eterna round: R96, puzzle: Same State 1)
0.16

I'd like to know its apparent KD of MS2 coat protein. The sequence in question is ACAUGAGAUAGAGGAUAUAUUGUACCUACAUGUGACAUGAGGAUCACCCAUGUGGUAAGUAUGACAUAGAAGGCUGAGAUAUGU [Equivalance 83 - Jieux - Same State NG 2] (Eterna round: R96, puzzle: Same State NG 2)
0.0675

I'd like to know its apparent KD of MS2 coat protein. The sequence in question is GCCAACUUAUGAGGAUAUGGCACCUUAUUGGUGCCAGAAGGCAUGUCAAUUGACAUGAGGAUCACCCAUGUAUUAUAGUUGGCA [Fiskers NG1ss - 21] (Eterna round: R96, puzzle: Same State NG 1)
0.326
